# Target: HDAC1 (Homo sapiens, UniProt Q13547)
# Sequence (Q13547 whole entry): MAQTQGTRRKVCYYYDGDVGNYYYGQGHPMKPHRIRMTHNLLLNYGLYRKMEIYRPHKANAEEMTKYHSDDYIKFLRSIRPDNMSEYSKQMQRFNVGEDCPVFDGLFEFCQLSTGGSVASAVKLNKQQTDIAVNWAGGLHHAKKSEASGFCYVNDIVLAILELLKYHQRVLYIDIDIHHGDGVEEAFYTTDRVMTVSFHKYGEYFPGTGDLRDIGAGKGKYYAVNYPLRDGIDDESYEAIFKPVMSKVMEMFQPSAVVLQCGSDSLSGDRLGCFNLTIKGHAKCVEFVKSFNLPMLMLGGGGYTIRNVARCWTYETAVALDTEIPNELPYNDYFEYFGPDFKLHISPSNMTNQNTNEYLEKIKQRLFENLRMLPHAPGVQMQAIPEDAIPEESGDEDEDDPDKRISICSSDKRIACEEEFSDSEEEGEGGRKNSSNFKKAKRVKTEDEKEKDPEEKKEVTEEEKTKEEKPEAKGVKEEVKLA
# Test details: In vitro HDAC inhibition assay (fluorogenic substrate), HDAC1
# Assay type: biochemical
# Design: All three full-length rhHDACs were expressed in insect High5 cells using a baculoviral expression system; His6; GST; made in house; host or cells: insect High5 cells (baculovirus)
# Condition notes: recombinant human HDAC1; mean ± SD of three independent determinations
Measured parameter: IC50 (µM)
A number alone suffices; assume µM.

Request: Using the record for O=C(CCCCCCCC(=O)Nc1cccc2c1CN(C1CCC(=O)NC1=O)C2=O)NO (stereo not drawn) [9c] , report its IC50.
Response: 1.13

Request: Using the record for O=C1CCC(N2C(=O)c3cccc(OCc4ccc(C(=O)NO)cc4)c3C2=O)C(=O)N1 (stereo not drawn) [23b] , report its IC50.
Response: 2.23

Request: Using the record for O=C(CCCCCCNC(=O)Nc1cccc2c1CN(C1CCC(=O)NC1=O)C2=O)NO (stereo not drawn) [15b] , report its IC50.
Response: 0.57

* * *

Record form. Attribute: IC50. Fill in for each entry.
# Target: HDAC6 (Homo sapiens, UniProt Q9UBN7)
# Sequence (Q9UBN7 whole entry): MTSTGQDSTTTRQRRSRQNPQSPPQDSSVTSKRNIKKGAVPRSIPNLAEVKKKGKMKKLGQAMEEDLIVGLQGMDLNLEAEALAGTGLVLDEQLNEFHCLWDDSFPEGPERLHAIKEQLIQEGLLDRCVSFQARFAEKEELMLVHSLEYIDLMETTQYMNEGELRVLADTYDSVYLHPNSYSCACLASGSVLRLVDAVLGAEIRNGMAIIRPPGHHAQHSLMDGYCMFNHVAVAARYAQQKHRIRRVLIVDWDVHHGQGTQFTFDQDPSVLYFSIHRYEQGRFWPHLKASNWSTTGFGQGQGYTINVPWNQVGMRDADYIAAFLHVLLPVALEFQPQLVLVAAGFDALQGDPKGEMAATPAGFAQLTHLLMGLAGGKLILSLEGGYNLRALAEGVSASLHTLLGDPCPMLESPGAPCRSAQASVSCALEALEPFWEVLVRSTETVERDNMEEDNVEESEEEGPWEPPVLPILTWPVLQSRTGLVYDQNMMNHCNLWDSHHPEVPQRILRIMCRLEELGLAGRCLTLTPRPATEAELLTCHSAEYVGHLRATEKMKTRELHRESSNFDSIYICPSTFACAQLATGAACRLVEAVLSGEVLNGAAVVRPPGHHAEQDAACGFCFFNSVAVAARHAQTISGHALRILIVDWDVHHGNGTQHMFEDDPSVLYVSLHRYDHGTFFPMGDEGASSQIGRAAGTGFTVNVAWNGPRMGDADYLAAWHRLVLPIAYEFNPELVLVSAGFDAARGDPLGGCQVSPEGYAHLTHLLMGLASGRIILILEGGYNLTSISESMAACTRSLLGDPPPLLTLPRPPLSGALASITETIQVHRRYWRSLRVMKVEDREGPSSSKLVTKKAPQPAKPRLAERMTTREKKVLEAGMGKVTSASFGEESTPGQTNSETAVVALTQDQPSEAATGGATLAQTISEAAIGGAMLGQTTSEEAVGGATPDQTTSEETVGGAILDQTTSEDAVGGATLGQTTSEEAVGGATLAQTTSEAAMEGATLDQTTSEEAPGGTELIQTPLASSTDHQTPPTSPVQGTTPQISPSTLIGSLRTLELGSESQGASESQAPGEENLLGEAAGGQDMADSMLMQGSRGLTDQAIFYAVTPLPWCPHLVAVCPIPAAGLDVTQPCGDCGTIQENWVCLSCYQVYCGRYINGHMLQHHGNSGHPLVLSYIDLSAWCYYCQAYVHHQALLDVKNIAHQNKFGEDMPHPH
# Test details: In vitro HDAC inhibition assay (fluorogenic substrate), HDAC6
# Type: biochemical
# Parameters: All three full-length rhHDACs were expressed in insect High5 cells using a baculoviral expression system; His6; GST; made in house; host or cells: insect High5 cells (baculovirus)
# Condition notes: recombinant human HDAC6; mean ± SD of three independent determinations
A number alone suffices; assume µM.

Request: Using the record for O=C(CCCCCCCC(=O)Nc1cccc2c1CN(C1CCC(=O)NC1=O)C2=O)NO (stereo not drawn) , report its IC50.
Response: 3.67

Request: Using the record for O=C(CCCCCCC(=O)Nc1cccc2c1CN(C1CCC(=O)NC1=O)C2=O)NO (stereo not drawn) , report its IC50.
Response: 1.46

meta.source: paper PMC8658794
